tested on: iNicSnFR12; format: biochemical; details: read-out: EC50, μM (Figure 1B, 1C, purified sensors); n = 3

- smilesData: "C[N+](C)(C)CCO"
  system: "iNicSnFR12"
  EC50: "≥ 100 µM"
